Consider the following compounds and their measured TD50 readings.
# TEST METHOD NOTES: Neurotoxicity in ip dosed albino CD1 mouse assessed as motor impairment by rotarod test
# Assay type: toxicity, organism-based
# ASSAY SETUP: in vivo

Known TD50 results, listed for orientation:
# COMPOUND, TD50
measured = [
    ("CN1CCN(CN2C(=O)CC(C(c3ccccc3)c3ccccc3)C2=O)CC1 (stereo unspecified)", "247 mg/kg"),
    ("CC[C@@H](C(N)=O)N1CCCC1=O", "> 500 mg/kg"),
    ("CC(C)C1CC(=O)N(CN2CCN(C3CCCCC3)CC2)C1=O (stereo unspecified)", "< 200 mg/kg"),
    ("O=C1CC(C(c2ccccc2)c2ccccc2)C(=O)N1CN1CCOCC1 (stereo unspecified)", "254 mg/kg"),
    ("CC(C)C1CC(=O)N(CN2CCN(C)CC2)C1=O (stereo unspecified)", "> 300 mg/kg"),
]

Note: attention shifts to another entry.
Reported TD50 for O=C1CC(C(c2ccccc2)c2ccccc2)C(=O)N1CN1CCN(CCO)CC1 (stereo unspecified) was 222 mg/kg

----------
# Tested on: Mus musculus
# TEST METHOD NOTES: Anticonvulsant activity in ip dosed albino CD1 mouse assessed as protection against subcutaneous pentylenetetrazole-induced seizures
# Assay type: functional
// assign condition met if ED50 falls strictly below 90 mg/kg, else condition not met (ties count as condition not met)

In: Determine if O=C1CC(C(c2ccccc2)c2ccccc2)C(=O)N1CN1CCN(CCO)CC1 (stereo unspecified) shows ED50 strictly lower than 90 mg/kg.
Out: condition met

In: Determine if CC(C)C1CC(=O)N(CN2CCN(C)CC2)C1=O (stereo unspecified) shows ED50 strictly lower than 90 mg/kg.
Out: condition met

In: Determine if CN1CCN(CN2C(=O)CC(C(c3ccccc3)c3ccccc3)C2=O)CC1 (stereo unspecified) shows ED50 strictly lower than 90 mg/kg.
Out: condition met

In: Determine if O=C1CC(C(c2ccccc2)c2ccccc2)C(=O)N1CN1CCOCC1 (stereo unspecified) shows ED50 strictly lower than 90 mg/kg.
Out: condition not met

In: Determine if CCCC(CCC)C(=O)O shows ED50 strictly lower than 90 mg/kg.
Out: condition not met

----------
# System: Mus musculus
# TEST METHOD NOTES: Anticonvulsant activity in albino CD1 mouse assessed as protection against subcutaneous pentylenetetrazole-induced seizures at 300 mg/kg, ip measured after 0.5 hrs
# Format: functional, organism-based
The source made the active and inactive calls. No cut-off for these calls is given here.
TEST READOUT: Activity

Known Activity results, listed for orientation:
# COMPOUND, Activity
records = [
    ("CC(C)C1CC(=O)N(CN2CCOCC2)C1=O (stereo not given)", "inactive"),
    ("CC1CC(=O)N(CN2CCOCC2)C1=O (stereo not given)", "inactive"),
    ("CC(C)C1CC(=O)N(CN2CCN(Cc3ccccc3)CC2)C1=O (stereo not given)", "inactive"),
    ("CC1CC(=O)N(CN2CCN(Cc3ccccc3)CC2)C1=O (stereo not given)", "inactive"),
    ("CC1CC(=O)N(CN2CCN(CCO)CC2)C1=O (stereo not given)", "inactive"),
]

Reported Activity for CN1CCN(CN2C(=O)CCC2=O)CC1 was inactive

Reported Activity for O=C1CCC(=O)N1CN1CCN(c2ncccn2)CC1 was inactive

Reported Activity for CC(C)C1CC(=O)N(CN2CCC(Cc3ccccc3)CC2)C1=O (stereo not given) was inactive

Reported Activity for CC1CC(=O)N(CN2CCN(C)CC2)C1=O (stereo not given) was inactive

Reported Activity for CC(C)C1CC(=O)N(CN2CCN(CCO)CC2)C1=O (stereo not given) was inactive
